# Tested on: UACC-62
# METHOD SUMMARY: NCI tumour cell line growth inhibition, 48 h
The source made the active and inactive calls. Cut-off read from the data, not from the text of the source: active = GI50 up to about 1.1 µM and inactive = higher.
Allowed answers: active, inactive

Reference set (5 entries):
[
  {
    "MOLECULE": "OC1=CN=C(c2ccccc2)Oc2ccccc21",
    "STUDY TARGET": "UACC-62",
    "ANSWER LABEL": "inactive"
  },
  {
    "MOLECULE": "CN(C)C(=S)/N=c1\\ss/c(=N\\C(=S)N(C)C)n1-c1ccc(Cl)c(Cl)c1",
    "STUDY TARGET": "UACC-62",
    "ANSWER LABEL": "inactive"
  },
  {
    "MOLECULE": "CN(C)CCn1c(=O)c2ccc(NCCN3CCNCC3)c3c(=O)c4ccccc4n(c1=O)c23",
    "STUDY TARGET": "UACC-62",
    "ANSWER LABEL": "inactive"
  },
  {
    "MOLECULE": "Nc1nc(N)c(CCCCc2ccc([N+](=O)[O-])cc2)c(N)n1",
    "STUDY TARGET": "UACC-62",
    "ANSWER LABEL": "inactive"
  },
  {
    "MOLECULE": "C=CCN1/C(=C2\\SC(=S)N(c3ccc(C)cc3)C2=O)Sc2c1nc[nH]c2=O",
    "STUDY TARGET": "UACC-62",
    "ANSWER LABEL": "inactive"
  }
]

We next turn to a different molecule, shown below.
Task: Given COc1ccc(C(=O)C2CC3(CCC2(O)c2ccc(OC)cc2)CC(=O)Nc2ccccc2C3=O)cc1 (configuration not stated) , state the outcome it received in this test.
Output: inactive
